Read-out: Transforming Growth Factor (TGFA), TGFA (gene 7039)
MEASUREMENT PROTOCOL: LTEA_HepaRG_TGFA: Life Technologies and Expression Analysis (LTEA) Assay for Transforming Growth Factor (TGFA) using HepaRG (AID 2283532)
SETUP CONDITIONS: mRNA level, 48 h; actives raise or lower the signal
Active and inactive are the calls of the source. How the source made its calls: active means hit-call score of the fitted dose curve at least 0.9, where 1 is the maximum; inactive means score below 0.9.
Possible outcomes: t for active, f for inactive

COMPOUND: CCCCN(CC)c1c([N+](=O)[O-])cc(C(F)(F)F)cc1[N+](=O)[O-]
LABEL VALUE: f
--
COMPOUND: COP(=O)(OC)SCn1c(=O)oc2cc(Cl)cnc21
LABEL VALUE: f
--
COMPOUND: S=C1NCCN1
LABEL VALUE: f
--
COMPOUND: CCCSP(=O)(OCC)SCCC
LABEL VALUE: f
--
COMPOUND: CCOP(=S)(OCC)Oc1ccc2c(C)c(Cl)c(=O)oc2c1
LABEL VALUE: f
--
COMPOUND: COP(=O)(OC)OC(Br)C(Cl)(Cl)Br (stereo not drawn)
LABEL VALUE: f
--
COMPOUND: CC(C1CC1)C(O)(Cn1cncn1)c1ccc(Cl)cc1 (stereo not drawn)
LABEL VALUE: f
--
COMPOUND: CNC(=O)ON=C(C)SC
LABEL VALUE: f
--
COMPOUND: CSc1nnc(C(C)(C)C)c(=O)n1N
LABEL VALUE: f
--
COMPOUND: CCOP(=O)(SC(C)CC)N1CCSC1=O (stereo not drawn)
LABEL VALUE: f
--
COMPOUND: FC(F)C(F)(F)OCC(Cn1cncn1)c1ccc(Cl)cc1Cl (stereo not drawn)
LABEL VALUE: t
--
COMPOUND: CN(C)C(=O)Nc1cccc(C(F)(F)F)c1
LABEL VALUE: f
--
COMPOUND: C#CC(C)(C)NC(=O)c1cc(Cl)cc(Cl)c1
LABEL VALUE: f

----------
ASSAY TARGET: human Casein Kinase 2- alpha 2 beta 2 (CK2a2b2), CSNK2A1 (gene 1457) (UniProt P68400)
Sequence (P68400 whole entry, looked up): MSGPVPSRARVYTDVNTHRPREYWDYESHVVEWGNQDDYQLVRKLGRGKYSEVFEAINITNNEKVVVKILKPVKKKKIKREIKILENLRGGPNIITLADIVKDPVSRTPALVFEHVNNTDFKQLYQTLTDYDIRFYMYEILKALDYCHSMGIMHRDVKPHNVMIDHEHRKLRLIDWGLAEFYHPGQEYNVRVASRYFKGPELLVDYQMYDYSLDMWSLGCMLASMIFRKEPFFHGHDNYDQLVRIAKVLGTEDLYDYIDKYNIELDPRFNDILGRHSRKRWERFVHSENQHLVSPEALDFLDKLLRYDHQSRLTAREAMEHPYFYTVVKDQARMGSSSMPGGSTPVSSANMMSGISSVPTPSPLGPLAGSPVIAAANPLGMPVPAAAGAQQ
MEASUREMENT PROTOCOL: NVS_ENZ_hCK2a2b2: NovaScreen (NVS) Enzymatic Assay for human Casein Kinase 2- alpha 2 beta 2 (CK2a2b2) (AID 2283147)
Inconclusive results are not listed. The source made the active and inactive calls. The calls were made as follows: active = hit-call score of the fitted dose curve at least 0.9, where 1 is the maximum; inconclusive = response in the unintended direction; inactive = score below 0.9.
Outcomes: True (active), False (inactive)

COMPOUND: CCOP(=S)(Oc1cnc(C(C)(C)C)nc1)OC(C)C (centres undefined)
LABEL VALUE: False
//
COMPOUND: CC(Oc1cccc(Cl)c1)C(=O)O (centres undefined)
LABEL VALUE: True
//
COMPOUND: O=C(O)c1cc(Oc2ccc(C(F)(F)F)cc2Cl)ccc1[N+](=O)[O-]
LABEL VALUE: False
//
COMPOUND: CCC(=O)Nc1ccc(Cl)c(Cl)c1
LABEL VALUE: True

----------
Read-out: Heat shock 70 kDa protein 1 (HSPA1A), gene 3303
MEASUREMENT PROTOCOL: LTEA_HepaRG_HSPA1A: Life Technologies and Expression Analysis (LTEA) Assay for Heat shock 70 kDa protein 1 (HSPA1A) using HepaRG (AID 2283502)
SETUP CONDITIONS: mRNA level, 48 h; actives raise or lower the signal
The source made the active and inactive calls. Rule for the calls: active = hit-call score of the fitted dose curve at least 0.9, where 1 is the maximum; inactive = score below 0.9.
Labels: 1 (yes) = active, 0 (no) = inactive

COMPOUND: Cc1cc(C2CC2)nc(Nc2ccccc2)n1
LABEL VALUE: 0 (no)
//
COMPOUND: Cc1ccn2nc(S(=O)(=O)Nc3c(F)cccc3F)nc2n1
LABEL VALUE: 0 (no)
//
COMPOUND: CN1COCN(Cc2cnc(Cl)s2)C1=N[N+](=O)[O-]
LABEL VALUE: 0 (no)
//
COMPOUND: COc1ccc(C(=CC(=O)N2CCOCC2)c2ccc(Cl)cc2)cc1OC
LABEL VALUE: 0 (no)
//
COMPOUND: CC1=NNC(=O)N(/N=C/c2cccnc2)C1
LABEL VALUE: 0 (no)
//
COMPOUND: CCOP(=S)(OCC)Oc1ccc([N+](=O)[O-])cc1
LABEL VALUE: 0 (no)
//
COMPOUND: CCC(CC)Nc1c([N+](=O)[O-])cc(C)c(C)c1[N+](=O)[O-]
LABEL VALUE: 0 (no)
//
COMPOUND: CCCOCC(=Nc1ccc(Cl)cc1C(F)(F)F)n1ccnc1
LABEL VALUE: 1 (yes)
//
COMPOUND: N#CSCSC#N
LABEL VALUE: 0 (no)
//
COMPOUND: CC[C@H](C)[C@H]1O[C@]2(C=C[C@@H]1C)C[C@@H]1C[C@@H](C/C=C(\C)[C@@H](O[C@H]3C[C@H](OC)[C@@H](O[C@H]4C[C@H](OC)[C@@H](NC)[C@H](C)O4)[C@H](C)O3)[C@@H](C)/C=C/C=C3\CO[C@@H]4[C@H](O)C(C)=C[C@@H](C(=O)O1)[C@]34O)O2
LABEL VALUE: 1 (yes)
//
COMPOUND: C[N+]1(C)CCCCC1
LABEL VALUE: 0 (no)
//
COMPOUND: CC(COc1ccc(Oc2ccccc2)cc1)Oc1ccccn1 (configuration not stated)
LABEL VALUE: 0 (no)
//
COMPOUND: CCCCOC(=O)c1ccccc1C(=O)O
LABEL VALUE: 0 (no)
//
COMPOUND: CCOP(=S)(OCC)SCCSCC
LABEL VALUE: 0 (no)
//
COMPOUND: Cc1nn(-c2cc(NS(C)(=O)=O)c(Cl)cc2Cl)c(=O)n1C(F)F
LABEL VALUE: 0 (no)
//
COMPOUND: COP(=O)(OC)SCn1c(=O)oc2cc(Cl)cnc21
LABEL VALUE: 0 (no)
//
COMPOUND: CCOP(=S)(Oc1cnc(C(C)(C)C)nc1)OC(C)C (configuration not stated)
LABEL VALUE: 0 (no)
//
COMPOUND: CNC(=O)Oc1cccc2c1OC(C)(C)O2
LABEL VALUE: 0 (no)
//
COMPOUND: CCOC(=O)CC(SP(=O)(OC)OC)C(=O)OCC (configuration not stated)
LABEL VALUE: 0 (no)
//
COMPOUND: COP(=O)(OC)C(O)C(Cl)(Cl)Cl (configuration not stated)
LABEL VALUE: 0 (no)
//
COMPOUND: Nc1c(Cl)cc([N+](=O)[O-])cc1Cl
LABEL VALUE: 1 (yes)
//
COMPOUND: CN(C)C(=O)Nc1cccc(C(F)(F)F)c1
LABEL VALUE: 0 (no)
//
COMPOUND: CCc1cnc(C2=NC(C)(C(C)C)C(=O)N2)c(C(=O)O)c1 (configuration not stated)
LABEL VALUE: 0 (no)
//
COMPOUND: CCOP(=O)(OCC)Oc1cc(C)nc(C(C)C)n1
LABEL VALUE: 0 (no)
//
COMPOUND: COc1cccc(C(=O)NN(C(=O)c2cc(C)cc(C)c2)C(C)(C)C)c1C
LABEL VALUE: 0 (no)
//
COMPOUND: CCC(=NOC/C=C/Cl)C1=C(O)CC(C2CCOCC2)CC1=O (configuration not stated)
LABEL VALUE: 0 (no)
//
COMPOUND: O=c1ccc(=O)[nH][nH]1
LABEL VALUE: 0 (no)
//
COMPOUND: CC(=NC#N)N(C)Cc1ccc(Cl)nc1
LABEL VALUE: 0 (no)
//
COMPOUND: CON=C(C(=O)OC)c1ccccc1CON=C(C)c1cccc(C(F)(F)F)c1
LABEL VALUE: 0 (no)
//
COMPOUND: CC(C)=CC1C(C(=O)OCN2C(=O)C3=C(CCCC3)C2=O)C1(C)C (configuration not stated)
LABEL VALUE: 0 (no)
//
COMPOUND: CSC1=N[C@@](C)(c2ccccc2)C(=O)N1Nc1ccccc1
LABEL VALUE: 0 (no)
//
COMPOUND: COc1cc(OC)nc(Sc2cccc(Cl)c2C(=O)O)n1
LABEL VALUE: 0 (no)
//
COMPOUND: CCCSP(=O)(OCC)Oc1ccc(Br)cc1Cl (configuration not stated)
LABEL VALUE: 0 (no)
//
COMPOUND: CCOP(=O)(NC(C)C)Oc1ccc(SC)c(C)c1 (configuration not stated)
LABEL VALUE: 0 (no)
//
COMPOUND: CCOC(=O)COc1cc(-c2nn(C)c(OC(F)F)c2Cl)c(F)cc1Cl
LABEL VALUE: 0 (no)
//
COMPOUND: CNC(=O)ON=C(SC)C(=O)N(C)C
LABEL VALUE: 0 (no)
//
COMPOUND: O=C(O)c1cc(Oc2ccc(C(F)(F)F)cc2Cl)ccc1[N+](=O)[O-]
LABEL VALUE: 0 (no)
//
COMPOUND: CCCCN(CC)c1c([N+](=O)[O-])cc(C(F)(F)F)cc1[N+](=O)[O-]
LABEL VALUE: 0 (no)
//
COMPOUND: Nc1nc(N)nc(NC2CC2)n1
LABEL VALUE: 0 (no)
//
COMPOUND: CCCCSP(=O)(SCCCC)SCCCC
LABEL VALUE: 0 (no)
//
COMPOUND: CC(C1CC1)C(O)(Cn1cncn1)c1ccc(Cl)cc1 (configuration not stated)
LABEL VALUE: 0 (no)
//
COMPOUND: CCOP(=O)(SC(C)CC)N1CCSC1=O (configuration not stated)
LABEL VALUE: 0 (no)

Source: PubChem BioAssay (EPA / NIEHS)
